# Test system: P. falciparum stage V gametocytes
# Parameters: BacTiter-Glo ATP luminescence viability of purified stage V gametocytes in 384-well plates, per cent inhibition versus DMSO
# conditions.used: 48 h, 5 µM; inhibitor
Out of some 13,000 compounds screened, about 3,200 (25%) showed an effect of 50% or more. This is one part of the list.
Outcome: TRUE for % Inhibition of at least -10%; FALSE for anything lower.

Use the examples below as a reference point.
CCOc1cc(C(=O)NC2CCN(Cc3ccccc3)CC2)ccc1-c1nc2ccc(Cl)cc2[nH]1    FALSE
CN1CCC(COc2ccc(CN3CCC(NC(=O)c4cccc(Cl)c4)CC3)cc2)CC1    TRUE

Prompt: Is it the case that CC1(C)CC(NC(=O)NC2CCN(Cc3ccccc3)CC2)CC(C)(CNC(=O)NC2CCN(Cc3ccccc3)CC2)C1 (centres unmarked) has % Inhibition reaching or exceeding -10%?
Response: TRUE

Prompt: Is it the case that COc1cc(-c2cc3cc(Cl)c(Cl)cc3[nH]2)ccc1C(=O)NC1CCN(Cc2ccccc2)CC1 has % Inhibition reaching or exceeding -10%?
Response: FALSE

Prompt: Is it the case that CCC(C)CN1CCN(c2ccc(NC(=O)c3cccs3)cc2)C(C)C1 (centres unmarked) has % Inhibition reaching or exceeding -10%?
Response: TRUE

Prompt: Is it the case that O=C(Nc1ccnc2ccccc12)NC1CCN(Cc2ccccc2)CC1 has % Inhibition reaching or exceeding -10%?
Response: FALSE

Prompt: Is it the case that CC(=O)Nc1ncc(C(=O)Nc2cccc(-c3ccc(-c4nc5ccc(F)cc5[nH]4)cc3)c2)s1 has % Inhibition reaching or exceeding -10%?
Response: FALSE

Prompt: Is it the case that CCOc1cc(Cc2cnc(N)nc2N)cc(OCC)c1OCCCCC(=O)OC has % Inhibition reaching or exceeding -10%?
Response: FALSE

====

# Test system: P. falciparum stage V gametocytes
# Design: BacTiter-Glo ATP luminescence viability of purified stage V gametocytes in 384-well plates, per cent inhibition versus DMSO
# conditions.used: 48 h, 5 µM; inhibitor
Hit rate of the full screen: of about 13,000 compounds, about 3,200 (25%) showed an effect of 50% or more. The list shows a part of the results.
measurement.type: % Inhibition (%)
Supply the numeric figure in %, leaving out any unit text.

CCc1cn2c3c(cc(C(=O)N[C@@H](Cc4ccccc4)[C@H](O)CNC(C)C)cc13)N(C)S(=O)(=O)C2    -18.09

Prompt: Test system P. falciparum stage V gametocytes; read-out % Inhibition; what value for CCc1cn2c3c(cc(C(=O)N[C@@H](Cc4ccccc4)[C@H](O)CNC(C)(C)CCCC(C)C)cc13)N(C)S(=O)(=O)C2 ?
Response: 80.58

Prompt: Test system P. falciparum stage V gametocytes; read-out % Inhibition; what value for CCc1cn2c3c(cc(C(=O)N[C@@H](Cc4ccccc4)[C@H](O)CNC(C)(C)c4cccc(OC)c4)cc13)N(C)S(=O)(=O)C2 ?
Response: 41.96

====

# System: P. falciparum stage V gametocytes
# Set-up: BacTiter-Glo ATP luminescence viability of purified stage V gametocytes in 384-well plates, per cent inhibition versus DMSO
# conditions.used: 48 h, 5 µM; inhibitor
The whole screen tested about 13,000 compounds, of which about 3,200 (25%) showed an effect of 50% or more. The list shows a part of the results.
measurement.type: % Inhibition (%)
Supply the numeric figure in %, leaving out any unit text.

CCCCCC(NCCCC)c1ccc(OCCOc2ccc(C(CCCCC)NCCCC)cc2)cc1 (centres unmarked)    107.4
Cn1nc(-c2ccc(S(=O)(=O)N3CCC(CN4CCC(c5c[nH]c6ccccc56)CC4)CC3)s2)cc1C(F)(F)F    114.8
CN1CCC(NCCS(=O)(=O)c2cccc(Nc3ccc(-c4cccc(F)c4)cn3)c2)CC1    8.325
CCCCCCC(N)c1ccc(OCCCOc2ccc(C(N)CCCCCC)cc2)cc1 (centres unmarked)    121.4
CCCCCOc1ccc(NC2=CC(=O)C(=O)c3ccccc32)cc1    -1.294
Cc1cc2cc(-c3ccc(CN)cc3)ccc2nc1N    101.7
Cc1cc(-c2cccc(CNC3CCN(C)CC3)c2)ccc1S(=O)(=O)NCCc1ccccn1    33.36
CCCCCOc1ccc(N2C(N)=NC(N)=NC2(C)C)cc1    13.1

--- query ---
Prompt: What value of % Inhibition has been reported for the following compound? O=C(N[C@@H](Cc1ccccc1)C(=O)NCCN1CCCCC1)c1ccc(O)c(-c2cccc(C(F)(F)F)c2)c1
Response: 36.65

====

Reported % Inhibition values for a set of molecules
# Test system: P. falciparum stage V gametocytes
# Parameters: BacTiter-Glo ATP luminescence viability of purified stage V gametocytes in 384-well plates, per cent inhibition versus DMSO
# conditions.used: 48 h, 5 µM; inhibitor
The campaign covered roughly 13,000 compounds. About 3,200 (25%) showed an effect of 50% or more. Some of the results follow.
Supply the numeric figure in %, leaving out any unit text.

Here is how some molecules turned out for % Inhibition.
COc1ccc(Oc2ccccc2CNCC2CCN(CC3CCCCC3)CC2)cc1    81.97
COc1ccc(CN2CCC(CNCCc3ccccc3Cl)CC2)cc1    21.62
COc1ccc(CN2CCC(CNCCc3ccccc3Oc3ccccc3)CC2)cc1    98.78
COc1ccc(CNC2Cc3ccccc3C2)cc1-c1cccc(S(=O)(=O)NCCN2CCCC2)c1    112.5
COc1ccc2nccc([C@@H](O)CN3CCC(NC(=O)Cc4ccc(Br)c5ccccc45)CC3)c2c1    -21.28

Prompt: Test system P. falciparum stage V gametocytes; read-out % Inhibition; what value for COc1cccc2cc(C(=O)N[C@@H](CC(C)C)C(=O)Nc3cc(F)ccc3Br)oc12 ?
Response: 2.093

Prompt: Test system P. falciparum stage V gametocytes; read-out % Inhibition; what value for COc1ccc2ccccc2c1CNCC1CCN(CC2CCCCC2)CC1 ?
Response: -44.03

Prompt: Test system P. falciparum stage V gametocytes; read-out % Inhibition; what value for O=C(Cn1cc(C(F)(F)F)cc(Cl)c1=O)N1CCN(S(=O)(=O)c2ccc(Cl)cc2)CC1 ?
Response: 70.99

====

# Test system: P. falciparum stage V gametocytes
# Set-up: BacTiter-Glo ATP luminescence viability of purified stage V gametocytes in 384-well plates, per cent inhibition versus DMSO
# conditions.used: 48 h, 5 µM; inhibitor
Among all 13,000 compounds or so, about 3,200 (25%) showed an effect of 50% or more. The list shows a part of the results.
Reported % Inhibition values for a set of compounds
Supply the numeric figure in %, leaving out any unit text.

O=C(Nc1ccc(OC2CCN(Cc3ccccc3)CC2)c(Cl)c1)c1ccc(F)cc1    19.46
O=C(Nc1ccccc1O)c1ccc(Oc2cccc(C(=O)Nc3ccccc3O)c2)cc1    -89.02
Cc1cccc2c(/C=C/C(=O)NC3CCC(CCN4CCc5ccc(C#N)cc5CC4)CC3)c[nH]c12 (stereo not drawn)    43.65
COc1cccc(C(=O)NCCOc2ccccc2)c1Oc1ccccc1    4.712
CN1CCN(Cc2cc3cc(NC(=O)/C=C/c4cccc(Cl)c4)ccc3s2)CC1    -63.97

Prompt: What value of % Inhibition has been reported for the following compound? NCC(=O)NC12CC3CC(CC(C3)C1)C2
Response: -2.875

Prompt: What value of % Inhibition has been reported for the following compound? CN1CCCCC1CCc1cc(C(=O)Nc2ccc(-c3ccc(O)cc3)cc2)ccc1O (stereo not drawn)
Response: -69.36

Prompt: What value of % Inhibition has been reported for the following compound? COC(=O)c1ccc(CC(C)NCC(O)c2cccc(OC(F)(F)F)c2)cc1 (stereo not drawn)
Response: 26.86

Prompt: What value of % Inhibition has been reported for the following compound? Cc1cccn2c(=O)c3cc(C(=O)NC(C)c4ccccc4)c(=N)n(CCN4CCOCC4)c3nc12 (stereo not drawn)
Response: 27.67

====

Reported % Inhibition values for a set of compounds
# System: P. falciparum stage V gametocytes
# Design: BacTiter-Glo ATP luminescence viability of purified stage V gametocytes in 384-well plates, per cent inhibition versus DMSO
# conditions.used: 48 h, 5 µM; inhibitor
Among all 13,000 compounds or so, about 3,200 (25%) showed an effect of 50% or more. The list shows a part of the results.
Supply the numeric figure in %, leaving out any unit text.

Here is how some compounds turned out for % Inhibition.
CCOc1ccc(-c2nonc2NC(=O)c2cccs2)cc1OCC [TCMDC-125207]    83.06
N=C(N)c1cccc(-c2cc(-c3cccc(C(=N)N)c3)on2)c1 [TCMDC-137789]    11.2
CCOc1ccc(-c2nonc2NC(=O)CC(C)C)cc1OCC [TCMDC-125196]    42.86
CCOc1ccc(-c2nonc2NC(=O)c2cccc(Cl)c2)cc1OCC [TCMDC-125200]    91.59

--- query ---
Prompt: What value of % Inhibition has been reported for the following compound? CCCCC(=O)Nc1nonc1-c1ccc(OCC)c(OCC)c1 [TCMDC-125071]
Response: 74.8
